Attribution: patent US9695461B2

tested on: protease according to SEQ ID NO: 3; assay: Relative proteolytic activity with reversible inhibitor in liquid surfactant preparation (Example 1); format: biochemical; conditions: Table 1; 3-HPBA in amount inhibiting starting enzyme by 20-40%; 50% conc. surfactant preparation, 0.92 mM AAPF, 25° C., pH 8.6; relative to same protease without inhibitor
property: relative activity, 3-HPBA (%)
Express your answer in %, writing the number without its unit.

Give me measured relative activity, 3-HPBA, please, for this molecule: S166Y: protease of SEQ ID NO: 3 with amino acid substitution S166Y in the count according to SEQ ID NO: 1 (protein, listed as Bacillus lentus) AQSVPWGISRVQAPAAHNRGLTGSGVKVAVLDTGISTHPDLNIRGGASFVPGEPSTQDGNGHGTHVAGTIAALNNSIGVLGVAPSAELYAVKVLGADGEGAISSIAQGLEWAGNNGMHVANLSLGSPSPSATLEQAVNSATSRGVLVVAASGNSGASSIYYPARYANAMAVGATDQNNNRASFSQYGAGLDIVAPGVNVQSTYPGSTYASLNGTSMATPHVAGAAALVKQKNPSWSNVQIRNHLKNTATSLGSTNLYGSGLVNAEAATR
58
